The measured values listed here are drawn from paper PMC10397247.

Molecular target: T1, 4H909-AA
T1 chain: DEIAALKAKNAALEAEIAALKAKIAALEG
Assay: two-hybrid library CCmax;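 further: natural log of median RNA to DNA barcode read ratio; higher means stronger binding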
Details: mean of both orientations
Record Fulfilled whenever interaction score is at -1 or higher; record Not fulfilled when lower.

Use the examples below as a reference point.
1. DEIAALKAENAALKAEIAALEAKIAALKG [4H710-AA] :: Fulfilled
2. DEIAALKAKIAALKAKNAALKAENAALEG [4H891-AA] :: Not fulfilled
3. DEIAALEAENAALEAKIAALKAENAALEG [4H171-AA] :: Not fulfilled
4. DKIAALEAKNAALEAKIAALKAEIAALEG [4H2473-AA] :: Fulfilled

Kindly review the next binder as well.
Please check the record DKIAALKAKNAALKAEIAALEAKNAALKG [4H3016-AA] and state if its interaction score is at or above -1. Fulfilled
